- system name: MMP-13CD (catalytic domain of collagenase-3) (Homo sapiens, UniProt P45452)
- measurement description: Thiopeptolide substrate hydrolysis inhibition assay, MMP-13CD
- Assay type: biochemical
- settings: Table I; thiopeptolide substrate, HEPES pH 7.0, 22° C.; read-out: MMP-13CD IC50
For each of the molecules below, state its pIC50.
One number for each entry, as −log10 of the molar value.

* Cn1c(=O)n(Cc2ccccc2)c(=O)c2cc(C(=O)NCc3cccnc3)sc21 | 6.42
* Cn1c(=O)n(Cc2ccc(-c3ccccc3)cc2)c(=O)c2cc(C(=O)OCc3ccccc3)sc21 | 6.21

--- query ---
pIC50 for CSc1ccc(COC(=O)c2cc3c(=O)n(Cc4ccccc4)c(=O)n(C)c3s2)cc1 [Example 203] ?
6.44
